target: Mitogen-activated protein kinase kinase kinase 20 (Homo sapiens); test: Inhibition of ZAK in human PC3 cell lysates at 10 uM using desthiobiotin-tagged ATP probe AX9989 followed by trypsinization by LC/MS analysis; details: PC-3
Property: inhibition; scope: individual compounds

Reference set (2 entries):
[[record]]
querysmiles = "O=C(NC1(c2ccccc2)CCC1)c1ccc2nc(N[C@H]3CC[C@H](O)CC3)c3nccn3c2c1"
endpointlabel = "inhibition"
testresult = "< 35%"

[[record]]
querysmiles = "NC(=O)c1ccc2nc(N[C@H]3CC[C@H](O)CC3)c3nccn3c2c1"
endpointlabel = "inhibition"
testresult = "< 35%"


Now for another entry.
GET /value?item= "CC[C@@H](NC(=O)c1ccc2nc(N[C@H]3CC[C@H](O)CC3)c3nccn3c2c1)c1ccccc1" &field=inhibition returns < 35%

---

target: Serine/threonine-protein kinase MARK2 (Homo sapiens) (UniProt Q7KZI7); test: Inhibition of MARK2 in human PC3 cell lysates at 10 uM using desthiobiotin-tagged ATP probe AX9989 followed by trypsinization by LC/MS analysis; details: PC-3
Sequence (Q7KZI7 whole entry): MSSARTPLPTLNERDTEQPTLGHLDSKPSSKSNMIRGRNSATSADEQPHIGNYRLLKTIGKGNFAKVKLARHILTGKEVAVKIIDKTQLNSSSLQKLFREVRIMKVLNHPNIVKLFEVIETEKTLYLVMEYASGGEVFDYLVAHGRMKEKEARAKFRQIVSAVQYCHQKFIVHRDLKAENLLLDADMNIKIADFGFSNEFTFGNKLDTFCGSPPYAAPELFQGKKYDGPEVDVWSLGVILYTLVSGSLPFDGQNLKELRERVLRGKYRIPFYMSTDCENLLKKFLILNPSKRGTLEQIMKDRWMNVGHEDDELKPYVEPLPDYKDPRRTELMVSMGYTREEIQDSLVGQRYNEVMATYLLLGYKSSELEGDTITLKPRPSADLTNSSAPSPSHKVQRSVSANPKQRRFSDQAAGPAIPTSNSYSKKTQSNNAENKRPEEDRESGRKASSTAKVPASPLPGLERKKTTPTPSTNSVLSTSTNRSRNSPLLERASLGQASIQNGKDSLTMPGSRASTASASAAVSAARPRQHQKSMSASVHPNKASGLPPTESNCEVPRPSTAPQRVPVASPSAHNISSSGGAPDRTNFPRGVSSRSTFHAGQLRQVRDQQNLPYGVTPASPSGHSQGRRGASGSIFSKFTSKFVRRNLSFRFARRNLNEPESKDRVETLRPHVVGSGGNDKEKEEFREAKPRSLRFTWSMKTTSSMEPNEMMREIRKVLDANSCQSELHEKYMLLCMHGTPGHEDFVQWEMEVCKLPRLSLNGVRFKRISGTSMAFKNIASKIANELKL
Recorded inhibition values for a group of molecules are listed next.

[[record]]
querysmiles = "O=C(NC1(c2ccc(F)cc2)CC1)c1ccc2nc(N[C@H]3CC[C@H](O)CC3)c3nccn3c2c1"
testresult = "< 35%"


Sample "O=C(NC1(Cc2ccc(F)cc2)CC1)c1ccc2nc(N[C@H]3CC[C@H](O)CC3)c3nccn3c2c1" ; inhibition observed: < 35%

---

target: UniProtKB Q9NZJ5; assay: Inhibition of PEK in human PC3 cell lysates at 30 uM using desthiobiotin-tagged ATP probe AX9989 followed by trypsinization by LC/MS analysis; conditions: PC-3
Sequence (Q9NZJ5 whole entry): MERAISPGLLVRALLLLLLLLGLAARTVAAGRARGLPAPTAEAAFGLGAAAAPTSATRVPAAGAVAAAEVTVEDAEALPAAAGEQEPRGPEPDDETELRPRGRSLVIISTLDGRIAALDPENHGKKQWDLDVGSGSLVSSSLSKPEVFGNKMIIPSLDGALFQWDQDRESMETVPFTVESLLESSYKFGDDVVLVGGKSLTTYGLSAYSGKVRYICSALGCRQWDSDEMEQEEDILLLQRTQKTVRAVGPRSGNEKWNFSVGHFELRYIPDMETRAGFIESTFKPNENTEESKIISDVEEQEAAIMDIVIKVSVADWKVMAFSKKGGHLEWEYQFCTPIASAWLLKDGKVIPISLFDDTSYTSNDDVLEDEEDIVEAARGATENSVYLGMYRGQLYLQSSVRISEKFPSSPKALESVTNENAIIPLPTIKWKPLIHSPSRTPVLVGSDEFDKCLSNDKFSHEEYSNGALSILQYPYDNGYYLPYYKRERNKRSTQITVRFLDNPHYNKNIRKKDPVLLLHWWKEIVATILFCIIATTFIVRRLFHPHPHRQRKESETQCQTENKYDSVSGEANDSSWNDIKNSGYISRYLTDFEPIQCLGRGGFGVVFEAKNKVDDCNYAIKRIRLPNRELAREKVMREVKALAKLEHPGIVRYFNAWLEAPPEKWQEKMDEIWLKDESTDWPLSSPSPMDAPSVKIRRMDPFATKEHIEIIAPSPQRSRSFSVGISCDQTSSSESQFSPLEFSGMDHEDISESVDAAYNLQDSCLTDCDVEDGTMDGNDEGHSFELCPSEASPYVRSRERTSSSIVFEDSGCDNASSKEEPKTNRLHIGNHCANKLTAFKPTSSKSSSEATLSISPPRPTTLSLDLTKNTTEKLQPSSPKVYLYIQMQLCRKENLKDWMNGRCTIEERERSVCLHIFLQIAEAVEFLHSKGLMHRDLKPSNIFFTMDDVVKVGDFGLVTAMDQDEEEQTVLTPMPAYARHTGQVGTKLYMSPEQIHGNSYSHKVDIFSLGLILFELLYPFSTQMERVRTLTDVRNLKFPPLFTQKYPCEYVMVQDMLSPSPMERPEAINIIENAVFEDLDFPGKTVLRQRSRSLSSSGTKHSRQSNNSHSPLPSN
endpointLabel: inhibition

# example entries with known answers
[[record]]
querysmiles = "c1ccc(CNc2nc3ccccc3n3ccnc23)cc1"
testresult = "< 35%"

[[record]]
querysmiles = "O[C@H]1CC[C@H](Nc2nc3ccccc3n3ccnc23)CC1"
testresult = "65%"

[[record]]
querysmiles = "c1ccc(CCNc2nc3ccccc3n3ccnc23)cc1"
testresult = "< 35%"


Consider the record given below.
Noted for "c1ccc2c(c1)nc(NC1CCCCC1)c1nccn12" : its inhibition reads < 35%

---

biological target: Serine/threonine-protein kinase TAO2 (Homo sapiens); assay: Inhibition of TAO2 in human PC3 cell lysates at 10 uM using desthiobiotin-tagged ATP probe AX9989 followed by trypsinization by LC/MS analysis; settings: PC-3
Consider the following molecules and their measured inhibition readings.

[[record]]
querysmiles = "NC(=O)c1ccc2nc(N[C@H]3CC[C@H](O)CC3)c3nccn3c2c1"
endpointlabel = "inhibition"
testresult = "< 35%"


"O=C(NC1(c2ccccc2)CCC1)c1ccc2nc(N[C@H]3CC[C@H](O)CC3)c3nccn3c2c1" yielded inhibition of < 35%

inhibition recorded for this molecule, "CC[C@@H](NC(=O)c1ccc2nc(N[C@H]3CC[C@H](O)CC3)c3nccn3c2c1)c1ccccc1" , is < 35%

inhibition in this record for "O=C(O)c1ccc2nc(N[C@H]3CC[C@H](O)CC3)c3nccn3c2c1" : 67%

GET /value?item= "CCC[C@@H](NC(=O)c1ccc2nc(N[C@H]3CC[C@H](O)CC3)c3nccn3c2c1)c1ccccc1" &field=inhibition returns < 35%

---

target: Ephrin type-B receptor 4 (Homo sapiens) (UniProt P54760); experiment: Inhibition of EphB4 in human PC3 cell lysates at 10 uM using desthiobiotin-tagged ATP probe AX9989 followed by trypsinization by LC/MS analysis; conditions: PC-3
Sequence (P54760 whole entry): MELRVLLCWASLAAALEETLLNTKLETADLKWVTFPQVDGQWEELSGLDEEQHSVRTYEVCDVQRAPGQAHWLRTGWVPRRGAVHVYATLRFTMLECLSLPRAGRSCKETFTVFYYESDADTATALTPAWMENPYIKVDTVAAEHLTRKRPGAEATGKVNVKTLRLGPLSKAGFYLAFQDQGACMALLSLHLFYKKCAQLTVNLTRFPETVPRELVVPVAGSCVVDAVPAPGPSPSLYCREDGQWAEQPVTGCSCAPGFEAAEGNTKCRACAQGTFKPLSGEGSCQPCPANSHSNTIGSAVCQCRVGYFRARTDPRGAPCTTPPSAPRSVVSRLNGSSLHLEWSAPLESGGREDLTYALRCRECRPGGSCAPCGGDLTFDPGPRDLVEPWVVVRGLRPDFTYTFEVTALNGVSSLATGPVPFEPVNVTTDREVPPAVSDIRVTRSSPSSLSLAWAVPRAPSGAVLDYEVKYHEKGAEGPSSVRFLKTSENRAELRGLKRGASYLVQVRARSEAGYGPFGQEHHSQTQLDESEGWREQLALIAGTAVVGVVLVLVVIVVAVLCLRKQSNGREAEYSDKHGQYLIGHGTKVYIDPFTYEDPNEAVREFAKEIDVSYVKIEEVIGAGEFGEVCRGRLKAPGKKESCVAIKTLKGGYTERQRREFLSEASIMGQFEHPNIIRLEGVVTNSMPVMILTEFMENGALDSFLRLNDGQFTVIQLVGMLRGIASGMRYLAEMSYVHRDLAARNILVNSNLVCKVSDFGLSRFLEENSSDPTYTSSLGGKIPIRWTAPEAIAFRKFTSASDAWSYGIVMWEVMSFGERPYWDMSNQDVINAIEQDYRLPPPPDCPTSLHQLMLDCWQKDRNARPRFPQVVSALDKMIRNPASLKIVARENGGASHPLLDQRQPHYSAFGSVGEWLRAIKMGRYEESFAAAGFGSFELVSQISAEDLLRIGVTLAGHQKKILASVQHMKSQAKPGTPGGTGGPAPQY
// values below are reported inhibition

[[record]]
querysmiles = "CC(C)(NC(=O)c1ccc2nc(N[C@H]3CC[C@H](O)CC3)c3nccn3c2c1)c1ccccc1"
endpointlabel = "inhibition"
testresult = "< 35%"

[[record]]
querysmiles = "C[C@@H](NC(=O)c1ccc2nc(N[C@H]3CC[C@H](O)CC3)c3nccn3c2c1)c1ccccc1"
endpointlabel = "inhibition"
testresult = "< 35%"


Let us move to another entry and its inhibition.
Record "O=C(NC1(c2ccc(F)cc2)CC1)c1ccc2nc(N[C@H]3CC[C@H](O)CC3)c3nccn3c2c1" . Reported inhibition: < 35%

---

// reported inhibition for each item listed
target: Cyclin-dependent kinase 10 (Homo sapiens) (UniProt Q15131); assay: Inhibition of CDK10 in human PC3 cell lysates at 10 uM using desthiobiotin-tagged ATP probe AX9989 followed by trypsinization by LC/MS analysis; conditions: PC-3
Sequence (Q15131 whole entry): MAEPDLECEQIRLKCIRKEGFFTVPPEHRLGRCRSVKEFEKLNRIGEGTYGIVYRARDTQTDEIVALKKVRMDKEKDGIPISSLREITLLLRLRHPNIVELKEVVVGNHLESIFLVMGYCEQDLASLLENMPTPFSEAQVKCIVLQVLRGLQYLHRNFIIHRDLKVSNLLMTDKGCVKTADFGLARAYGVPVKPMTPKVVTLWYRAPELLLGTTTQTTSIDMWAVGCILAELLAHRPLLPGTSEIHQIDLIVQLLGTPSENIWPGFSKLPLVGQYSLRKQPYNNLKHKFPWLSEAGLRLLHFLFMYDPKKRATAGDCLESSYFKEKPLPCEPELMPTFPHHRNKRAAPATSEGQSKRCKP

Please review the following examples before continuing.
[[record]]
querysmiles = "O=C(NC1(c2ccc(F)cc2)CC1)c1ccc2nc(N[C@H]3CC[C@H](O)CC3)c3nccn3c2c1"
testresult = "< 35%"

[[record]]
querysmiles = "C[C@@H](NC(=O)c1ccc2nc(N[C@H]3CC[C@H](O)CC3)c3nccn3c2c1)c1ccccc1"
testresult = "56.2%"


inhibition for "C[C@H](NC(=O)c1ccc2nc(N[C@H]3CC[C@H](O)CC3)c3nccn3c2c1)c1ccccc1" is < 35%

Documented inhibition of "CCC[C@@H](NC(=O)c1ccc2nc(N[C@H]3CC[C@H](O)CC3)c3nccn3c2c1)c1ccccc1" : < 35%

Please fill in: inhibition reported for "O=C(NC1(c2ccccc2)CC1)c1ccc2nc(N[C@H]3CC[C@H](O)CC3)c3nccn3c2c1" = < 35%

Entry "CC[C@@H](NC(=O)c1ccc2nc(N[C@H]3CC[C@H](O)CC3)c3nccn3c2c1)c1ccccc1" — recorded inhibition = < 35%

Summary for this molecule, "O=C(NC1(Cc2ccc(F)cc2)CC1)c1ccc2nc(N[C@H]3CC[C@H](O)CC3)c3nccn3c2c1" : inhibition is < 35%

What the record says about "O=C(NC1(c2ccccc2)CCC1)c1ccc2nc(N[C@H]3CC[C@H](O)CC3)c3nccn3c2c1" : inhibition is 59.1%

---

Collected inhibition values appear next to each entry.
biological target: Serine/threonine-protein kinase TAO3 (Homo sapiens) (UniProt Q9H2K8); assay: Inhibition of TAO3 in human PC3 cell lysates at 10 uM using desthiobiotin-tagged ATP probe AX9989 followed by trypsinization by LC/MS analysis; settings: PC-3
Sequence (Q9H2K8 whole entry): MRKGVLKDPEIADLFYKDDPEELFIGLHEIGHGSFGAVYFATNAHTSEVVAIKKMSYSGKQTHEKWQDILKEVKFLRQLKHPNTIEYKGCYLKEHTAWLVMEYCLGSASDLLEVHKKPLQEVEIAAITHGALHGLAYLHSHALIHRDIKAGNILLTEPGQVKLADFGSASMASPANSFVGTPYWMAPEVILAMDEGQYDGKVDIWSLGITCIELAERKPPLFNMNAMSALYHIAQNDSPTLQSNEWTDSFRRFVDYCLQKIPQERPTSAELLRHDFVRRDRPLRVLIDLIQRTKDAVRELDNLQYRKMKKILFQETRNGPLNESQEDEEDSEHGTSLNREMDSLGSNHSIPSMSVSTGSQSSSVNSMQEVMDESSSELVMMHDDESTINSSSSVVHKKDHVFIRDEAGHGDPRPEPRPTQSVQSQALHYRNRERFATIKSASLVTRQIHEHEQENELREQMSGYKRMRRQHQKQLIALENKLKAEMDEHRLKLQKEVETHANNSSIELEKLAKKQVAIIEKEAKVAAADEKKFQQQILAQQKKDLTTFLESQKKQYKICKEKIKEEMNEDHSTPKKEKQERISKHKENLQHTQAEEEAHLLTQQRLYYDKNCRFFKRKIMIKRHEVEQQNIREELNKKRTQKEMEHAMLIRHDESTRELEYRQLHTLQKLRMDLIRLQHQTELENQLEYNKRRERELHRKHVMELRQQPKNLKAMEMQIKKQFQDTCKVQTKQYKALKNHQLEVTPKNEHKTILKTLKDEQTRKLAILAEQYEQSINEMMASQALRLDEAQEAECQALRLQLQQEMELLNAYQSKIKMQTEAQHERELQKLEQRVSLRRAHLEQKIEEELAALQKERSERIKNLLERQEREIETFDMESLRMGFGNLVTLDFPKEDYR

Please review the entries below; each comes with its answer.
[[record]]
querysmiles = "C[C@H](NC(=O)c1ccc2nc(N[C@H]3CC[C@H](O)CC3)c3nccn3c2c1)c1ccccc1"
testresult = "< 35%"

[[record]]
querysmiles = "O=C(O)c1ccc2nc(N[C@H]3CC[C@H](O)CC3)c3nccn3c2c1"
testresult = "< 35%"


Now let's try a different one.
Reported inhibition ( "O=C(NC1(Cc2ccc(F)cc2)CC1)c1ccc2nc(N[C@H]3CC[C@H](O)CC3)c3nccn3c2c1" ) = < 35%

---

biological target: Serine/threonine-protein kinase TAO3 (Homo sapiens); assay: Inhibition of TAO3 in human PC3 cell lysates at 10 uM using desthiobiotin-tagged ATP probe AX9989 followed by trypsinization by LC/MS analysis; conditions: PC-3
endpointLabel: inhibition

These recorded examples may help you get a feel for the data.
[[record]]
querysmiles = "C[C@@H](NC(=O)c1ccc2nc(N[C@H]3CC[C@H](O)CC3)c3nccn3c2c1)c1ccccc1"
testresult = "< 35%"

[[record]]
querysmiles = "CC(C)(NC(=O)c1ccc2nc(N[C@H]3CC[C@H](O)CC3)c3nccn3c2c1)c1ccccc1"
testresult = "< 35%"


Observed inhibition, Serine/threonine-protein kinase TAO3 (Homo sapiens), "NC(=O)c1ccc2nc(N[C@H]3CC[C@H](O)CC3)c3nccn3c2c1" : < 35%

---

molecular target: Cyclin-dependent kinase 10 (Homo sapiens) (UniProt Q15131); assay: Inhibition of CDK10 in human PC3 cell lysates at 10 uM using desthiobiotin-tagged ATP probe AX9989 followed by trypsinization by LC/MS analysis; conditions: PC-3
endpointLabel: inhibition (%)

[[record]]
querysmiles = "NC(=O)c1ccc2nc(N[C@H]3CC[C@H](O)CC3)c3nccn3c2c1"
testedtarget = "Cyclin-dependent kinase 10 (Homo sapiens) (UniProt Q15131)"
endpointlabel = "inhibition"
outputunit = "%"
testresult = 90.4


1: O=C(O)c1ccc2nc(N[C@H]3CC[C@H](O)CC3)c3nccn3c2c1
2: O=C(N[C@H](CO)c1ccccc1)c1ccc2nc(N[C@H]3CC[C@H](O)CC3)c3nccn3c2c1
q: Name the one with the greater inhibition value, either 1 or 2 as given. Give the chosen item's label as your response.
a: 1
(1: 91.3%, 2: 46.6%)

---

inhibition values for the compounds below.
target: Mitogen-activated protein kinase 11 (Homo sapiens); experiment: Inhibition of p38beta in human PC3 cell lysates at 10 uM using desthiobiotin-tagged ATP probe AX9989 followed by trypsinization by LC/MS analysis; conditions: PC-3

Answered cases to consult:
[[record]]
querysmiles = "NC(=O)c1ccc2nc(N[C@H]3CC[C@H](O)CC3)c3nccn3c2c1"
endpointlabel = "inhibition"
testresult = "< 35%"

[[record]]
querysmiles = "C[C@H](NC(=O)c1ccc2nc(N[C@H]3CC[C@H](O)CC3)c3nccn3c2c1)c1ccccc1"
endpointlabel = "inhibition"
testresult = "< 35%"

[[record]]
querysmiles = "CC[C@@H](NC(=O)c1ccc2nc(N[C@H]3CC[C@H](O)CC3)c3nccn3c2c1)c1ccccc1"
endpointlabel = "inhibition"
testresult = "< 35%"

[[record]]
querysmiles = "O=C(N[C@H](CO)c1ccccc1)c1ccc2nc(N[C@H]3CC[C@H](O)CC3)c3nccn3c2c1"
endpointlabel = "inhibition"
testresult = "< 35%"

[[record]]
querysmiles = "O=C(NC1(Cc2ccc(F)cc2)CC1)c1ccc2nc(N[C@H]3CC[C@H](O)CC3)c3nccn3c2c1"
endpointlabel = "inhibition"
testresult = "< 35%"

[[record]]
querysmiles = "O=C(O)c1ccc2nc(N[C@H]3CC[C@H](O)CC3)c3nccn3c2c1"
endpointlabel = "inhibition"
testresult = "< 35%"


// inhibition value for "O=C(NC1(c2ccc(F)cc2)CC1)c1ccc2nc(N[C@H]3CC[C@H](O)CC3)c3nccn3c2c1" : < 35%

Reported inhibition ( "O=C(NC1(c2ccccc2)CC1)c1ccc2nc(N[C@H]3CC[C@H](O)CC3)c3nccn3c2c1" ) = < 35%

"C[C@@H](NC(=O)c1ccc2nc(N[C@H]3CC[C@H](O)CC3)c3nccn3c2c1)c1ccccc1" yielded inhibition of < 35%
